# studySystem: Human HPK1, catalytic domain (Homo sapiens, UniProt Q92918)
# Sequence (Q92918 1-346): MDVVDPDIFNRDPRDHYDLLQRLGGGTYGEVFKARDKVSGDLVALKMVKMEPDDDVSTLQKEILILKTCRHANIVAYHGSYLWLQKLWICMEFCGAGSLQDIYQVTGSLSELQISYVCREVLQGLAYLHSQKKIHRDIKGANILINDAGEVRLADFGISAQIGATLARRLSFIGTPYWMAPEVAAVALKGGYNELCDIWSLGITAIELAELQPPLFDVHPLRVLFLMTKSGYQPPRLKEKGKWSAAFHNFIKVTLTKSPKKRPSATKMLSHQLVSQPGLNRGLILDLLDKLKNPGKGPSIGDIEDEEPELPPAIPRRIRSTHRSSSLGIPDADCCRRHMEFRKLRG
pIC50: −log10 of the molar value.
Criterion: pIC50 meeting or surpassing 9. Met: fulfilled. Not met: not fulfilled.

Here's what some known entries look like.
molecule: COc1cc2c(cc1Nc1ncc3ccc(N[C@H]4CCCOCC4)cc3n1)CN(C)CC2
labelClass: not fulfilled
--
molecule: COc1cc2c(cc1Nc1ncc3ccc(-c4cncc(S(C)(=O)=O)c4)cc3n1)CNCC2
labelClass: not fulfilled
--
molecule: COc1cc2c(cc1Nc1ncc3c(N)cc(-c4cnccc4C)cc3n1)CNCC2
labelClass: fulfilled

State whether the measured pIC50 reaches 9, counting equality as reaching it, for COc1cc2c(cc1Nc1ncc3ccc(-c4cccc(C(=O)NC5CC5)c4)cc3n1)CNCC2
not fulfilled

State whether the measured pIC50 reaches 9, counting equality as reaching it, for Cc1c(-c2cc3nc(Nc4ccc5c(c4)CN(C)C(C)C5)ncc3c(N)c2F)cnc2c1NCCO2 (single isomer, unassigned)
fulfilled

State whether the measured pIC50 reaches 9, counting equality as reaching it, for CNC(=O)C1(c2ccc(Nc3ncc4c(N)c(F)c(-c5cnc6c(c5C)NCCO6)cc4n3)cc2)CCC1
fulfilled
